target: UniProt:P04626; assay: ErbB enzyme assay (CisBio HTRF KinEASE-TK), Assay 2; assay type: biochemical
So I've got a bunch of molecules here, and I need their pIC50 values.
One number for each entry, as −log10 of the molar value.

Previously resolved entries follow.
>>> reported_result("CC(=O)N1C2CC1CN(c1ncc3ncnc(Nc4ccc(Oc5ccc6c(c5)ncn6C)c(C)c4)c3n1)C2")
6.55
>>> reported_result("Clc1cc(Nc2ncnc3cnc(N4CC[C@@H]5COC[C@H]54)nc23)ccc1Oc1ccn2ncnc2c1")
7.93
>>> reported_result("Cc1cc(Nc2ncnc3cnc(N(C)[C@H]4CN(C)C[C@H]4F)nc23)ccc1Oc1ccc2c(c1)ncn2C")
7.74
>>> reported_result("Cc1cc(Nc2ncnc3cnc(N4CC[C@@H](C(C)(C)O)C4)nc23)ccc1Oc1ccc2c(c1)ncn2C")
7.64

Here are 2 molecules. What values of pIC50 were reported for them?
1. Cc1cc(Nc2ncnc3cnc(N4CCC(C)(O)CC4)nc23)ccc1Oc1ccc2c(c1)ncn2C
2. Cc1cc(Nc2ncnc3cnc(N4C[C@H](O)C(F)(F)C4)nc23)c(F)cc1Oc1ccc2c(c1)ncn2C

Result:
7.24
7.51

molecule CON1CCN(c2ncc3ncnc(Nc4ccc(Oc5ccn6ncnc6c5)c(C)c4F)c3n2)CC1 , pIC50 observed: 7.02

---

So I've got a bunch of molecules here, and I need their IC50 values.
target: ErbB2 WT (Homo sapiens (Human))
Sequence (P04626 23-1255): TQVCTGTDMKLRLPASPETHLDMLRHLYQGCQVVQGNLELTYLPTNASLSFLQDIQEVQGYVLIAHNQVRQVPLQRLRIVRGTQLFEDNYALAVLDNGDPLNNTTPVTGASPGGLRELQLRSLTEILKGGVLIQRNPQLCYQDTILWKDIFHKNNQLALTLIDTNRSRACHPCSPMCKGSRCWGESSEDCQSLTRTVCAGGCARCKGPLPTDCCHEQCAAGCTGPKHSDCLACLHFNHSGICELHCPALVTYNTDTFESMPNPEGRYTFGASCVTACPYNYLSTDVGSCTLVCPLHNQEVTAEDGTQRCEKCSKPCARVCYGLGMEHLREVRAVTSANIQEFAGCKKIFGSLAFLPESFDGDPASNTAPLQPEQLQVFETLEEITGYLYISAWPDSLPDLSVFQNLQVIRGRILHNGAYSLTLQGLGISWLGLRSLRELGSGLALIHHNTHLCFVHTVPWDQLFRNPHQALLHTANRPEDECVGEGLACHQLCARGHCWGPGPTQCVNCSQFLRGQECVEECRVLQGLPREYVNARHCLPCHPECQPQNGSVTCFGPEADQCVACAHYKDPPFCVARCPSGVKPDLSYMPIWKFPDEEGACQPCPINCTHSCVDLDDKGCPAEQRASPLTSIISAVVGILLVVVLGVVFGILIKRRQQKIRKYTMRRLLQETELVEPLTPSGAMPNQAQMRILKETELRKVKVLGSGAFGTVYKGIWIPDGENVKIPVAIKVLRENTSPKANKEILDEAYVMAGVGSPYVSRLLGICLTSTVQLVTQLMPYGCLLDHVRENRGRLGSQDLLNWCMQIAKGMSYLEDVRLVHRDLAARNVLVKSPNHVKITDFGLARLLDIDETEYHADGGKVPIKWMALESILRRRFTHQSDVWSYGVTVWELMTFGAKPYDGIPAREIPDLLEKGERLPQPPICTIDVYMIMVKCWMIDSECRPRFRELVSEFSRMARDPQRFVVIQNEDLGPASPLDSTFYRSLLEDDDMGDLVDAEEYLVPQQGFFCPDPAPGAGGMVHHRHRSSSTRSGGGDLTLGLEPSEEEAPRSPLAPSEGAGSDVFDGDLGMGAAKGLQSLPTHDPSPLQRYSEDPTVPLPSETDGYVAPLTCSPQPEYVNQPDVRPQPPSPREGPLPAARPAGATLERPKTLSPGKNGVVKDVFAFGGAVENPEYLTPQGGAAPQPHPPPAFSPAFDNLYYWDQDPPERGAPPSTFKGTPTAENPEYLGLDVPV
Give bare numbers, in nM.

Previously resolved entries follow.
>>> reported_result("Clc1cc(Nc2ncnc3cnc(N4CCC5COCC54)nc23)ccc1Oc1ccn2ncnc2c1 (stereo not shown) [Example 377]")
14.7
>>> reported_result("Cc1c(Oc2ccc3c(c2)ncn3C)ccc(Nc2ncnc3cnc(N4CCC[C@](C)(O)C4)nc23)c1F [Example 147]")
45.5
>>> reported_result("Clc1cc(Nc2ncnc3cnc(N4CCO[C@H]5C[C@H]54)nc23)ccc1Oc1ccn2ncnc2c1 [Example 384]")
43

In the following, a different molecule is considered.
molecule Cc1cc(Nc2ncnc3cnc(NC4=NC(C)(C)CO4)nc23)ccc1Oc1ccn2ncnc2c1 [Example 362] , IC50 observed: 32.1

---

Observed IC50 for EGFR (Homo sapiens (Human), UniProt P00533), reported per entry below.

Previously resolved entries follow.
>>> reported_result("Cc1cc(Nc2ncnc3cnc(O[C@H]4CNCC4(F)F)nc23)ccc1Oc1ccc2c(c1)ncn2C [Example 303]")
"≥ 10 µM"
>>> reported_result("COC1CN(c2ncc3ncnc(Nc4ccc(Oc5ccc6c(c5)ncn6C)c(C)c4)c3n2)C1 [Example 43]")
"≥ 10 µM"
>>> reported_result("Cc1c(Oc2ccc3c(c2)ncn3C)ccc(Nc2ncnc3cnc(N4CC[C@H](O)C4)nc23)c1F [Example 458]")
"1.63 µM"

Here are 5 compounds. What values of IC50 were reported for them?
1. CCNc1ncc2ncnc(Nc3ccc(Oc4ccc5c(ccn5C)c4)c(C)c3)c2n1 [Example 269]
2. Cc1cc(Nc2ncnc3cnc(N4CCN5C(=O)COC[C@H]5C4)nc23)ccc1Oc1ccc2c(c1)ncn2C [Example 346]
3. Cc1ncc(-c2ncc3ncnc(Nc4ccc(Oc5ccc6c(c5)ncn6C)c(C)c4)c3n2)o1 [Example 223]
4. CO[C@H]1C[C@@H](Nc2ncc3ncnc(Nc4ccc(Oc5ccc6c(c5)ncn6C)c(C)c4)c3n2)C1 [Example 260]
5. Cn1cnc2cc(Oc3ccc(Nc4ncnc5cnc(N6CC[C@H](C#N)C6)nc45)cc3Cl)ccc21 [Example 152, 2,2,2-trifluoroacetate]

Result:
["2.4 µM", "≥ 10 µM", "≥ 10 µM", "≥ 10 µM", "≥ 10 µM"]

---

target: MDR1 (P-gp) (Homo sapiens (Human)); test: MDR1 transfected MDCKII canine Mdr1 knockout permeability/efflux, Assay 7; conditions: dog, MDCK-MDR1
Sequence (P08183 whole entry): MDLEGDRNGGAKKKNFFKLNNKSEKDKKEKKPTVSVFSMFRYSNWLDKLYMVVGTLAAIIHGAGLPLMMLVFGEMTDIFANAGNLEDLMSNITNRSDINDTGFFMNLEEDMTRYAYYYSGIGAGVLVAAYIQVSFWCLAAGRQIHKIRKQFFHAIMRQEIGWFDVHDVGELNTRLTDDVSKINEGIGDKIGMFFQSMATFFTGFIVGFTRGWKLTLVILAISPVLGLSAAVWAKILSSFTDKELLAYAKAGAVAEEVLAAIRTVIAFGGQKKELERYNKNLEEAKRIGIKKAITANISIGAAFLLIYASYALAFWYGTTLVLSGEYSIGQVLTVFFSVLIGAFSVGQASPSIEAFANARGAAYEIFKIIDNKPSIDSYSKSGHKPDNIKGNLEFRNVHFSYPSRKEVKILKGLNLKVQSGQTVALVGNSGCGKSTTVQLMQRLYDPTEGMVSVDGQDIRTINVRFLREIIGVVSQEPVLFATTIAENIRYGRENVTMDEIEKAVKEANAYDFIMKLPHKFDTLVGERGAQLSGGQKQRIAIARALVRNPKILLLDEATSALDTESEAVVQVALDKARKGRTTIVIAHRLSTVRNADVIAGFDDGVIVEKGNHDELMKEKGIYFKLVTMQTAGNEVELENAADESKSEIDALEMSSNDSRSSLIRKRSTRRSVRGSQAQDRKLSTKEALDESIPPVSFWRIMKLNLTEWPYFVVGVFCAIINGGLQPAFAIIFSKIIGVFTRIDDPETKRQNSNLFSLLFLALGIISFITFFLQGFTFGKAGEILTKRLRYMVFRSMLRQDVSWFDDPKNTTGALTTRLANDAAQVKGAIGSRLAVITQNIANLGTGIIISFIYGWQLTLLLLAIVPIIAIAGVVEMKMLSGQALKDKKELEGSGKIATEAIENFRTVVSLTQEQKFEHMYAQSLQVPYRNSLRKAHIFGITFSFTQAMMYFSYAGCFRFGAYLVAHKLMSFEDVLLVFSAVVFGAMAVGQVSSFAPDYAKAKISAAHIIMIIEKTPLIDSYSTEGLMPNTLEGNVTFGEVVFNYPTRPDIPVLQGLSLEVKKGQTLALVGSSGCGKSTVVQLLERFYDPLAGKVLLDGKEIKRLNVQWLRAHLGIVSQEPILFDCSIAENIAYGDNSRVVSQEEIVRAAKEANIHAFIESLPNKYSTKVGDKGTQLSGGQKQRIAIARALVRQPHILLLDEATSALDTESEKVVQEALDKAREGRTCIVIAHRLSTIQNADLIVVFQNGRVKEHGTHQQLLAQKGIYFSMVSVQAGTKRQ
ASSAY ENDPOINT: efflux ratio at 2 h, 1 μM
Answers are plain numbers.

>>> reported_result("Cc1cc(Nc2ncnc3cnc(NCC4(O)COC4)nc23)ccc1Oc1ccc2c(c1)ncn2C")
10.6
>>> reported_result("Cn1cnc2cc(Oc3ccc(Nc4ncnc5cnc(N6CCN7CCOC[C@@H]7C6)nc45)cc3Cl)ccc21.O=C(O)C(F)(F)F.O=C(O)C(F)(F)F")
1.2
>>> reported_result("Cc1cc(Nc2ncnc3cnc(N4CCC(F)(F)C4)nc23)ccc1Oc1ccc2c(c1)ncn2C")
0.4
>>> reported_result("Cc1cc(Nc2ncnc3cnc(N(C)C)nc23)ccc1Oc1ccc2c(c1)ncn2C [Example 3, 2,2,2-trifluoroacetate]")
1

Here are 7 compounds. What values of efflux ratio at 2 h, 1 μM were reported for them?
1. Cc1cc(Nc2ncnc3cnc(N4CC[C@H](C#N)C4)nc23)ccc1Oc1ccc2c(c1)ncn2C
2. CSc1ncc2ncnc(Nc3ccc(Oc4ccc5csnc5c4)c(C)c3)c2n1 [Example 11, 2,2,2-trifluoroacetate]
3. Cc1cc(Nc2ncnc3cnc(N4CCO[C@H](C)C4)nc23)ccc1Oc1ccc2c(c1)ncn2C
4. Cn1cnc2cc(Oc3ccc(Nc4ncnc5cnc(N6CC[C@H](CC#N)C6)nc45)cc3Cl)ccc21
5. Cc1cc(Nc2ncnc3cnc(N(C)[C@H]4C[C@@](C)(O)C4)nc23)ccc1Oc1ccc2c(c1)ncn2C
6. Cc1cc(Nc2ncnc3cnc(N(C)C4COC4)nc23)ccc1Oc1ccc2c(c1)ncn2C
7. Cc1cc(Nc2ncnc3cnc(N[C@@H]4CNCC4(F)F)nc23)ccc1Oc1ccc2c(c1)ncn2C

Result:
1. 1.2
2. 0.7
3. 1.1
4. 1.6
5. 2.1
6. 1.4
7. 3.2

---

target: ErbB2 insYVMA (HER2-YVMA, SEQ ID NO: 2) (Homo sapiens, UniProt P04626, INS775YVMA/P1170A); assay: biochemical; details: ErbB2 insYVMA enzyme assay; read-out: Assay 1 IC50
Sequence (P04626 with tags, fused parts or gaps INS775YVMA/P1170A limits assumed): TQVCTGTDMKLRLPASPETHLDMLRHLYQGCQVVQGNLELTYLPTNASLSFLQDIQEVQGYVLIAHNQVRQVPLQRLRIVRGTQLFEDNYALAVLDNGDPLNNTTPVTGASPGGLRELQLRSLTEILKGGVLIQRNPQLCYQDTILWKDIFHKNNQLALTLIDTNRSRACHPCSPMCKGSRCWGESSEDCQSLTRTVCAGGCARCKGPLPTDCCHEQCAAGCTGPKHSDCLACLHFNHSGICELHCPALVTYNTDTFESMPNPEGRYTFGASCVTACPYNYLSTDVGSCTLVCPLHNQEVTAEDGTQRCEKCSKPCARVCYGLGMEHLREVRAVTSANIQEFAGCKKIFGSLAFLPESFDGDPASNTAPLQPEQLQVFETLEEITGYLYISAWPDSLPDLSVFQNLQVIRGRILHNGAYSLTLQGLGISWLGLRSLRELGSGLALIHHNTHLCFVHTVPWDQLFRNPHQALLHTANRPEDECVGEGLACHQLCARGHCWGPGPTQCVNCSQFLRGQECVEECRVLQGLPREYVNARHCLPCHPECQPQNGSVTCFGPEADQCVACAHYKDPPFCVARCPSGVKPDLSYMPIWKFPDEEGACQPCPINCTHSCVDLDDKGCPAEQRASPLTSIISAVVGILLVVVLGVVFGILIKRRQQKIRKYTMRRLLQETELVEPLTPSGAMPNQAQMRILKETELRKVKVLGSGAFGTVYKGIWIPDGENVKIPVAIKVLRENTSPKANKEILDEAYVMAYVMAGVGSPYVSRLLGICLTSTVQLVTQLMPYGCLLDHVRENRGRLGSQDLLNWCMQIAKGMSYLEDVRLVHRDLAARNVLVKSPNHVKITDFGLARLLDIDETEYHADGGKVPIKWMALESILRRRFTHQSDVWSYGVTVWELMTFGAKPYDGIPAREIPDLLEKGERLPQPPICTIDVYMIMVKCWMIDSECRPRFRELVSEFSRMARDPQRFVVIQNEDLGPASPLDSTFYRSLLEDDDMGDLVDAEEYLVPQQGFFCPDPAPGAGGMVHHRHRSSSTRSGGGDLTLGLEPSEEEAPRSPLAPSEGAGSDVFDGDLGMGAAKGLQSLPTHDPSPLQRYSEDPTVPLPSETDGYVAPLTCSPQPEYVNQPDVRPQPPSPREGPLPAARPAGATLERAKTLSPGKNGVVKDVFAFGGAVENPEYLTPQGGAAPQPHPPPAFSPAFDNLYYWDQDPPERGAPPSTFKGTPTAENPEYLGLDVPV
ASSAY ENDPOINT: pIC50
Give bare numbers, as −log10 of the molar value.

Previously resolved entries follow.
>>> reported_result("Cc1cc(Nc2ncnc3cnc(N4[C@H]5CC[C@@H]4[C@H](O)C5)nc23)ccc1Oc1ccc2c(c1)ncn2C (racemic)")
7.73
>>> reported_result("Cc1cc(Nc2ncnc3cnc(N4C[C@@H]5CC[C@H]4CO5)nc23)ccc1Oc1ccc2c(c1)ncn2C")
7.60
>>> reported_result("Cc1cc(Nc2ncnc3cnc(N4C[C@@H](O)C(C)(C)C4)nc23)ccc1Oc1ccc2c(c1)ncn2C")
7.41

Here are 5 molecules. What values of pIC50 were reported for them?
1. FC(F)(F)[C@@H]1CN(c2ncc3ncnc(Nc4ccc(Oc5ccn6ncnc6c5)c(Cl)c4)c3n2)CCN1
2. Cc1cc(Nc2ncnc3cnc(N(C)CC4(O)CCC4)nc23)ccc1Oc1ccc2c(c1)ncn2C
3. Cc1cc(Nc2ncnc3cnc(N4CCN[C@@H](C)C4)nc23)ccc1Oc1ccc2c(c1)ncn2C
4. Cc1cc(Nc2ncnc3cnc(N4CCC(F)(F)[C@@H](O)C4)nc23)ccc1Oc1ccc2c(c1)ncn2C
5. Cc1cc(Nc2ncnc3cnc(N4CC[C@H](C(F)F)C4)nc23)ccc1Oc1ccc2c(c1)ncn2C

Result:
1: 7.38; 2: 7.55; 3: 7.66; 4: 7.23; 5: 7.03

---

Observed IC50 for UniProt:P04626, reported per entry below.
Answers are plain numbers, in nM.

Previously resolved entries follow.
>>> reported_result("O[C@H]1CN(c2ncc3ncnc(Nc4ccc(Oc5ccn6ncnc6c5)c(Cl)c4)c3n2)CC[C@@H]1F")
12.8
>>> reported_result("Cc1cc(Nc2ncnc3cnc(N4CC5C(C4)C5(F)F)nc23)ccc1Oc1ccc2c(c1)ncn2C (stereo not shown)")
165
>>> reported_result("Cc1cc(Nc2ncnc3cnc(N4CC(F)(F)C4)nc23)ccc1Oc1ccc2c(c1)ncn2C")
403

In the following, a different molecule is considered.
molecule Cc1cc(Nc2ncnc3cnc(N4CC5CC4CO5)nc23)ccc1Oc1ccc2c(c1)ncn2C.O=C(O)C(F)(F)F (stereo not shown) [Example 77, 2,2,2-trifluoroacetate] , IC50 observed: 48.9

---

So I've got a bunch of molecules here, and I need their pIC50 values.
biological target: ErbB2 with Exon 20 YVMA insertion (HER2-YVMA) (Homo sapiens (Human), UniProt P04626, INS775YVMA); assay: Cellular phosphorylation assay, constitutive ErbB2 phosphorylation (Y1196) in engineered NIH 3T3 cells, Assay 4
Sequence (P04626 other isoform, or with tags, fused parts or gaps ins YVMA behind 775): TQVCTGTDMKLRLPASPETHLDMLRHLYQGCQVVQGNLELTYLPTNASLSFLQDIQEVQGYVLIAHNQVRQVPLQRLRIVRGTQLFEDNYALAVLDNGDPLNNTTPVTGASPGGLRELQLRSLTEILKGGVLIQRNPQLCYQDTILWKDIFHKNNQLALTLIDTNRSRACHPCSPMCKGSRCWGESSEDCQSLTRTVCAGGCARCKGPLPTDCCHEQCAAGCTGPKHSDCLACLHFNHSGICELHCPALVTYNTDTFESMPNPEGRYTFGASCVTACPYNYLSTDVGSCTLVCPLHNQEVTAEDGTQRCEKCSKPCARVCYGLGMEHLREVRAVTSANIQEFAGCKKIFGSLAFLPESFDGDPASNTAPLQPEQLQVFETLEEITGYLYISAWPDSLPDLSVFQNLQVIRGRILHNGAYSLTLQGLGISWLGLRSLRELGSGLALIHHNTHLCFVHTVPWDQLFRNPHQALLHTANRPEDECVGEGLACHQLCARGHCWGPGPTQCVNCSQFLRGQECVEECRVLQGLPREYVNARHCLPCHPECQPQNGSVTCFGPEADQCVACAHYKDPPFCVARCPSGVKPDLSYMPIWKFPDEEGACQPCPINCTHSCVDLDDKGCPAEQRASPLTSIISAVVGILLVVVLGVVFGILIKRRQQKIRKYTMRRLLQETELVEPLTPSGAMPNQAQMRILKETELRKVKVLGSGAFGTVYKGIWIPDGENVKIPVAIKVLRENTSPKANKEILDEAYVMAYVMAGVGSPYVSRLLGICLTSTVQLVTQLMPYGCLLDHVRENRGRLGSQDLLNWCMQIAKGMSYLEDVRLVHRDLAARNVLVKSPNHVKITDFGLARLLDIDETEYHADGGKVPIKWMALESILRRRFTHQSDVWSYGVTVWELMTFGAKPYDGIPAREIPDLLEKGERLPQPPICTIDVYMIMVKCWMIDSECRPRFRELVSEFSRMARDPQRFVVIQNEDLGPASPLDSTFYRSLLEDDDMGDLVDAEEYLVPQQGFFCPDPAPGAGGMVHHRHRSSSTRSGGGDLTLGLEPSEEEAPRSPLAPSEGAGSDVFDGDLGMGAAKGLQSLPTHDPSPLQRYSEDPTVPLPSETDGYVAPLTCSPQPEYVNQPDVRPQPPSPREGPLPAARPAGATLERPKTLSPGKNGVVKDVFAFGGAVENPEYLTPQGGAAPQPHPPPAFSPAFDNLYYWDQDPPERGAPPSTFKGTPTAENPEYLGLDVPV
One number for each entry, as −log10 of the molar value.

Previously resolved entries follow.
>>> reported_result("Cn1cnc2cc(Oc3ccc(Nc4ncnc5cnc(N6CCC67COC7)nc45)cc3Cl)ccc21.O=C(O)C(F)(F)F")
7.69
>>> reported_result("Cc1cc(Nc2ncnc3cnc(N4CCC4)nc23)ccc1Oc1ccn2ncnc2c1")
6.45
>>> reported_result("Cc1cc(Nc2ncnc3cnc(O[C@@H]4CN(C)C[C@@H]4F)nc23)ccc1Oc1ccc2c(c1)ncn2C")
7.02
>>> reported_result("Cc1cc(Nc2ncnc3cnc(N(C)CC(O)C(F)(F)F)nc23)ccc1Oc1ccc2c(c1)ncn2C (stereo not shown)")
7.69
>>> reported_result("Cc1cc(Nc2ncnc3cnc(N4CCOCC4)nc23)ccc1Oc1ccc2c(c1)ncn2C [Example 9, 2,2,2-trifluoroacetate]")
8.31

Here are 2 molecules. What values of pIC50 were reported for them?
1. Cc1cc(Nc2ncnc3cnc(N4CC[C@@H](C(C)(C)O)C4)nc23)ccc1Oc1ccn2ncnc2c1
2. CCNc1ncc2ncnc(Nc3ccc(Oc4ccc5c(ccn5C)c4)c(C)c3)c2n1

Result:
7.19
7.68
